- assay protocol: soluble fraction after stress (log2 fold change); higher = more stays soluble; pooled small domains, quantitative proteomics
- particulars: stress: pH 4
Rule: soluble fraction (log2) of -0.05 or more gives 1 (yes); anything lower gives 0 (no).

Below are worked cases with known answers.
> print(dat)
                              item.sequence  class.label
1  HMNPTSLTFRSNVKDGKVYVDGIFKGSSDLDFDLPKGRHSIRIEKDGYVPFAKTINLIKALVIDFNMEKA      1 (yes)
2  HMEKSQIHLIHTRYVNPEQLVPILSMVIPAENIYVKSDSNLIIINGSSEMLREVESIVSKLDVPS       0 (no)
3  HMYDESVFTGEYHYYYEKLSDDDKLIYRQIYAMMQKRMDGISLNTTDTDNVSRIQQFVLLDNPQF       0 (no)
4  HMSKSIELMNEIKKYIEEYYLQYRQSPSTTKIAEAVGIARGTAYKYLVEMSERNMIEYDGQEISTEVTRKY       0 (no)
5  HMRIAQYRQIENDLLEQINLGYYKKGDLIPTELELSATYHVSRVTVRKATDNLVAKGILQRVAGVGTFVSR      1 (yes)

QUERY: I'd appreciate it if you could say whether HMLSSAAAIDRILAGGTAAMNHRQFDAALTSFNTVIEMRPDFAEGWNKRATLYYLIGEYERSIADVERTLA has soluble fraction (log2) at least equal to -0.05.
RESULT: 1 (yes)

QUERY: I'd appreciate it if you could say whether HMTTPDIIVPDVKGMTVAEAQKALEEKGFKVKLEEMTQEGAVPGDVIRIDPVAGTKRKEGAKITLLIARG has soluble fraction (log2) at least equal to -0.05.
RESULT: 0 (no)

QUERY: I'd appreciate it if you could say whether HMGAQINSPISGTILKYLVKNGDKITKDQPLVNIESMKMENTIKSDKEGIVNNINFKIGDSVNTADTLLTL has soluble fraction (log2) at least equal to -0.05.
RESULT: 1 (yes)
